Molecular target: T1, Rb^P A490V (human, UniProt P06400 380-788, A490V)
T1 construct: also called variant 17
T1 sequence (looked up): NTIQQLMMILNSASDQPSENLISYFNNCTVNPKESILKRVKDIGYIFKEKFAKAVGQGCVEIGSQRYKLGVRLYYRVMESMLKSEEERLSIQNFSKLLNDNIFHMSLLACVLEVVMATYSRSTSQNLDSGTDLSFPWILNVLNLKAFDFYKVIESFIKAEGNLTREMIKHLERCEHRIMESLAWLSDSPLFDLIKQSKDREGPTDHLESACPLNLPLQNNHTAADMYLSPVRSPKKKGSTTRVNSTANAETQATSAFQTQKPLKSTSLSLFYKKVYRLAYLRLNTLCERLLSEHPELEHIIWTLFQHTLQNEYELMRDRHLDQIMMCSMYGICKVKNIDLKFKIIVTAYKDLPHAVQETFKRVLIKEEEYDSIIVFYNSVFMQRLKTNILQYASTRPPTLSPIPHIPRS
Assay: fluorescence polarisation; 37 °C, after the 25 °C reading ramped over 7 min to 37 °C and 2 min incubation; unlabeled Rb^P against 1.5 nM TMR-E2F1^TD or 7.5 nM TMR-E7^LxCxE; 25 mM Tris pH 8.0, 200 mM NaCl, 1 mM DTT, 0.1% Tween-20; apparent Kd
Conditions: both partners purified
No end group written: not given here. TMR = tetramethyl rhodamine dye
observationType: Kd (nM)

INSERT INTO assay_data (binder, datavalue) VALUES
  ('{TMR}-GEGIRDLFDCDFGDLTPLD (also called E2F^TD; source: synthetic peptide, bought: GenScript) [TMR-E2F1^TD, peptide of the E2F1 transactivation domain]', 87),
  ('DLYCYEQLN (also: TMR label, position not given here, source: synthetic peptide, bought: GenScript) [TMR-E7^LxCxE, LxCxE peptide of the E7 oncoprotein from HPV]', 33);
